SYSTEM NAME: HA-GST-Rheb (GTP-γ-S loaded) activating mTORC1 (Homo sapiens (Human))
Sequence (Q15382 1-181): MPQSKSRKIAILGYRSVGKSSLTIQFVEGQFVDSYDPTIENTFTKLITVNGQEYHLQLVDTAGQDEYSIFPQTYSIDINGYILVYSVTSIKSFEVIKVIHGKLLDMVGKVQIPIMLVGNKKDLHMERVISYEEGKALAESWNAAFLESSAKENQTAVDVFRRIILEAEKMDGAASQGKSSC
ASSAY PROTOCOL: Rheb-dependent in vitro kinase assay (Rheb-IVK; LanthaScreen or Western readout)
Assay type: biochemical
TEST CONTEXT: Rheb-dependent in vitro kinase assay; read-out: IVK IC50
pIC50: −log10 of the molar value.
OBSERVED PROPERTY: pIC50

Below: 5 compounds and their reported pIC50.
OCc1cc2c(Sc3cccc4cccnc34)cc(Cl)cc2[nH]1	4.00 to 5.00
OCc1nc2c(OCC3CCCO3)c(Cl)c(Cl)cc2[nH]1 (stereo not drawn) [I-400, bis (2,2,2-trifluoroacetate)]	3.52 to 4.00
OCc1nc2c(Sc3ccc(Cl)cc3Cl)c(Cl)c(Cl)cc2[nH]1	4.00 to 5.00
CC(C)NC(=O)c1ccc(Cn2c(C(=O)O)cc3c(Br)cc(Sc4ccc(Cl)c(Cl)c4)cc32)cc1	< 4.00
OCc1cc2c(Br)cc(Sc3ccccc3)cc2[nH]1	4.00 to 5.00

In: Quick check: pIC50 on HA-GST-Rheb (GTP-γ-S loaded) activating mTORC1 (Homo sapiens (Human)), item "O=C1CCc2ccc(Oc3cc(Cl)cc4[nH]c(C(=O)O)cc34)cc2N1" ?
Out: 3.52 to 4.00

In: Quick check: pIC50 on HA-GST-Rheb (GTP-γ-S loaded) activating mTORC1 (Homo sapiens (Human)), item "O=C(O)c1cc2c(Sc3ccc(Oc4ccc(Cl)cc4)cc3)cc(Cl)cc2[nH]1" ?
Out: > 5.00

In: Quick check: pIC50 on HA-GST-Rheb (GTP-γ-S loaded) activating mTORC1 (Homo sapiens (Human)), item "O=C(NC1CCN(Cc2ccccc2)CC1)c1cc2c(Sc3ccc(Cl)cc3Cl)cc(Cl)cc2[nH]1" ?
Out: < 5.52

In: Quick check: pIC50 on HA-GST-Rheb (GTP-γ-S loaded) activating mTORC1 (Homo sapiens (Human)), item "Cn1ccc2c(Sc3ccc(Cl)cc3)cc(Cl)cc21" ?
Out: < 4.00
